Measured values drawn from PubChem BioAssay (NCI) for this set.

assay: NCI Yeast Anticancer Drug Screen. Data for the rad50 strain (AID 155);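 further: 0% = growth of vehicle-only cultures of the same strain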; settings: S. cerevisiae rad50 strain growth inhibition; at 5.0 µM (retest, dose inferred, filed as 0.5); stronger effect = higher value
This is part of a sample that, as a whole, favours compounds with a hit. Of some 79,000 tested, about 15% had one in any assay.
Items are presented alongside their recorded growth inhibition.
observation type: growth inhibition (%)

compound: CC(C)CC(NC(=O)COc1c(Cl)cc(Cl)c(Cl)c1Cl)C(=O)O (centres undefined)
readout number: 0
//
compound: CSc1nc(SC)c2cnn(Cc3ccccc3)c2n1
readout number: -16
//
compound: Clc1ccc(-c2nc3ccc(Cl)cc3[nH]2)cc1
readout number: -2
//
compound: CCCCNC(C)(C)COC(=O)/C=C/c1ccc(OCCCC)cc1
readout number: 6
//
compound: Cc1ccc(C)c(N2C(=O)C(=O)C(c3nc4ccccc4o3)C(=O)C2=O)c1
readout number: 38
//
compound: O=C1C(c2ccccc2)=S=C2C=CC=CN12
readout number: 2
//
compound: OCCOCCO[P+]1(OCCOCCO)n2c3ccc2C(c2ccccc2)=C2C=CC(=N2)C(c2ccccc2)=c2ccc(n21)=C(c1ccccc1)C1=NC(=C3c2ccccc2)C=C1
readout number: 99
//
compound: O=C1c2ccccc2C(=O)c2sc(Nc3ccc(Cl)cc3)nc21
readout number: 79
//
compound: C/C(=N\NC(=S)N1CCN(c2ccccn2)CC1)c1ncccn1
readout number: 2
//
compound: O=C(Nc1cccc(Br)c1)Oc1ccc(Cl)c2cccnc12
readout number: 38
//
compound: C1C2OC2C2C1C1CC2C2OC12 (centres undefined)
readout number: 1
//
compound: Cc1c2ccnc(C(N)=O)c2c(C)c2c1[nH]c1ccccc12
readout number: 9
//
compound: CCCCN(CCC=C1c2ccccc2Oc2ccccc21)CCCC
readout number: 7
//
compound: CS(=O)(=O)OCCN(CCOS(C)(=O)=O)c1ccc(C=Nc2cccc(Cl)c2)cc1
readout number: 35
//
compound: C(C#Cc1ccccc1)#CCc1ccccc1
readout number: 2
//
compound: Cc1ccc(S(=O)(=O)Nc2ccc3c(c2)Cc2cc([N+](=O)[O-])ccc2-3)cc1
readout number: 45
//
compound: Clc1ccc(/C=C\c2ccncc2)cc1
readout number: 3
//
compound: CCCCN(CCCC)CCC(O)(c1ccc(OC)c2ccccc12)C(O)(CCN(CCCC)CCCC)c1ccc(OC)c2ccccc12 (centres undefined)
readout number: 43
//
compound: COc1cc(C2c3cc4c(cc3[C@@H](Nc3ccc5c(c3)OCCO5)C3COC(=O)[C@H]23)OCO4)cc(OC)c1O (some centres undefined)
readout number: 96
//
compound: CC(=O)OC12CC(C(F)(F)F)(C(F)(F)F)OC1(OC(C)=O)CC(C(F)(F)F)(C(F)(F)F)O2 (centres undefined)
readout number: 1
//
compound: COc1cnn(-c2ccccc2)c(=O)c1SCc1ccc(Cl)c(Cl)c1
readout number: -3
//
compound: COc1cc2c(ccc3cc4cccc[n+]4cc32)c(Br)c1OC
readout number: 0
//
compound: Cn1cc(NC(=O)c2cc(NC(=O)CCCCCCCCCCC(=O)Nc3cc(C(=O)Nc4cc(C(=O)NCCC(=N)N)n(C)c4)n(C)c3)cn2C)cc1C(=O)NCCC(=N)N
readout number: 92
//
compound: O=C(c1ccccc1)c1ccccc1S(=O)(=O)Nc1ccccc1
readout number: -5
//
compound: CCc1cc2c([nH]c3ccccc32)c(C)c1CCN(C)C
readout number: -1
//
compound: Cn1cc(NC(=O)c2cc(NC(=O)CCCCCCCCC(=O)Nc3cc(C(=O)Nc4cc(C(=O)NCCC(N)N)n(C)c4)n(C)c3)cn2C)cc1C(=O)NCCC(=N)N
readout number: 83
//
compound: CN(C)CCCNc1ccc(O)c2sc3ccccc3c(=O)c12
readout number: 4
//
compound: CCOC(=N)CCCSSc1ccc(N=[N+]=[N-])cc1
readout number: 15
//
compound: O=C1OC(CCCl)(c2ccccc2)CC1CN1CCOCC1 (centres undefined)
readout number: 10

---

Assay: NCI Yeast Anticancer Drug Screen. Data for the mec2-1 strain (AID 157)
Conditions: S. cerevisiae mec2-1 strain, at 50.0 µM, stronger effect = higher value
Protocol: Growth inhibition of yeast strains with defined genetic alterations is measured as a screen for potential anti-cancer activity. Selected strains with alterations in DNA damage repair or cell cycle control were exposed to compounds and growth inhibition was measured relative to vehicle treated controls. The strain used in this assay is mec2-1
The panel holds about 79,000 compounds, 15% with a hit somewhere; the sample as a whole holds those more often.

molecule: O=[N+]([O-])OC1CCCC(O[N+](=O)[O-])c2c1n([O-])c1ccccc1[n+]2=O (stereo unspecified)
growth inhibition (%): 21.2

molecule: c1cc[c]([Sn]([S]c2cccc3cccnc23)([S]c2cccc3cccnc23)[c]2ccccc2)cc1
growth inhibition (%): 98

molecule: CN(C)c1ccc(/C=C(\C#N)c2c(F)cccc2F)cc1
growth inhibition (%): -10.8

molecule: Clc1ccc(-c2noc(CN3CCCCC3)n2)cc1
growth inhibition (%): 15.2

molecule: CCc1c(Nc2ccccc2C)[nH]c(N)nc1=S
growth inhibition (%): 5.35

molecule: CC(=O)C(=Cc1ccc(C=C(C(C)=O)C(C)=O)cc1)C(C)=O
growth inhibition (%): 58.5

---

experiment: NCI Yeast Anticancer Drug Screen. Data for the mec2-1 strain (AID 157); details: S. cerevisiae mec2-1 strain, at 50.0 µM
About 79,000 compounds went through this panel and 15% of them were active in at least one assay; those are over-represented in the sample as a whole. Active and inactive are the calls of the source. Cut-off read from the data, not from the text of the source: active = growth inhibition above about 70%; inactive = the rest.
Outcome codes: t for active, f for inactive

compound: CC(CO)[C@H]1OC(=O)C=C2[C@@]13O[C@@H]3[C@H]1OC(=O)[C@@]3(C)[C@H]4O[C@H]4C[C@@]2(C)[C@@H]13 (some centres not stated)
class name: t
//
compound: O=C(O)Cc1nc2ccccc2[nH]1
class name: f
//
compound: C[Si](C)(c1ccccc1)C1CC(=O)CC(=O)C1
class name: f
//
compound: CCCCCCCCCC(=O)NN=C(C)C
class name: t
//
compound: CCS(=O)(=O)/C=C(\C#Cc1ccccc1)c1ccccc1
class name: t
//
compound: CCCCNCCCCCCCCCCCl
class name: t
//
compound: CCS(=O)(=O)/C=C/c1ccc2ccccc2n1
class name: f
//
compound: COc1ccc(CC[N+]2(C)COc3cc4oc(=O)cc(C)c4cc3C2)cc1OC (configuration not stated)
class name: f
//
compound: CCc1nc(N)nc(N)c1-c1ccc(NCCN)c([N+](=O)[O-])c1
class name: t
//
compound: O=C(CC(=O)c1ccccc1)CC1(O)CCCCC1
class name: t
//
compound: CCOC(=O)c1[nH]n(-c2ccccc2)c(=O)c1/C=N/C(=S)Nc1ccccc1OC
class name: f
//
compound: CN(C)C(=O)SC1=C(c2c(Cl)cccc2Cl)C(=O)c2ccccc21
class name: t

---

assay: NCI Yeast Anticancer Drug Screen. Data for the bub3 strain (AID 167); details: S. cerevisiae bub3 mutant strain, at 50.0 µM (retest, dose inferred, filed as 5.0), stronger effect = higher value
The panel holds about 79,000 compounds, 15% with a hit somewhere; the sample as a whole holds those more often.
Everything with growth inhibition lower than 50% is False; everything else, including exactly 50%, is True.

compound: Clc1ccc2nc3c(c(N4CCOCC4)c2c1)CCCC3
class name: True
--
compound: CCN(CC)CCCNc1c(O)cc(C)c2sc3ccccc3c(=O)c12
class name: True
--
compound: Clc1ccccc1CN1COc2c(ccc3cccnc23)C1
class name: False
--
compound: O=C1NC(=O)N(c2ccc([N+](=O)[O-])cc2)C1=O
class name: False
--
compound: Cc1nc2c(=O)[nH]c3ccc(Cl)cc3c2o1
class name: True
--
compound: CCOC(=O)C1SC(=Nc2ccc(Cl)cc2)N=C1C (stereo unspecified)
class name: True
--
compound: Clc1cc(Cl)c(NN=C(c2ccccc2)c2ccccc2)c(Cl)c1
class name: True
--
compound: O=C1NC(c2cccc3ccccc23)Nc2ccc(Cl)cc21 (stereo unspecified)
class name: True
--
compound: CCOP(=O)(OCC)/C(=C\NC(=S)N=Nc1c(O)[nH]c2ccccc12)C(=O)OC
class name: True
--
compound: CCOC(=O)C(C(C)=O)C1=C(Cl)C(=O)c2ccccc2C1=O (stereo unspecified)
class name: True
--
compound: O=c1ccccc(Br)c1O
class name: True
--
compound: COc1ccc(/C=C(\C#N)c2ccccc2)cc1OC
class name: True
--
compound: CCNCCNc1cc(O)c2c(c1O)C(=O)c1ccccc1C2=O
class name: True
--
compound: NC1CCCCC1N.O=S(=O)([O-])CCCN1CCN(CCO)CC1.O=S(=O)([O-])CCCN1CCN(CCO)CC1.[Pt+4]
class name: True
--
compound: COc1ccc2c(c1)C(=O)C(Br)CC2 (stereo unspecified)
class name: True
--
compound: O=c1cc(-c2ccccc2)[nH]c2ccc(N3CCCC3)cc12
class name: False
--
compound: O/N=C/c1cc(Cl)cc(Cl)c1O
class name: True
--
compound: COc1cc(C2c3cc4c(cc3[C@@H](Nc3ccc5c(c3)OCCO5)C3COC(=O)[C@H]23)OCO4)cc(OC)c1O (stereo partly specified)
class name: True
--
compound: CCCCCCCCOc1ccc(/C=C/C(C)=N/NC(N)=NC)cc1OC
class name: True
--
compound: CC[N+]1=C(/C=C\c2cc(C)c3cccnc3c2O)C(C)(C)c2ccccc21
class name: True
--
compound: COc1cc(C(c2cc3c(cc2O)OCO3)N2CCOCC2)cc(OC)c1OC (stereo unspecified)
class name: False
--
compound: CCC(=O)Sc1ccccc1C(=O)Nc1ccc(Cl)cc1
class name: True
--
compound: Cc1c(C)c2cc3c(=O)ccoc3c(C)c2oc1=O
class name: True
--
compound: O=C1c2ccccc2C(c2ccccc2)(c2ccccc2)N1c1ccccc1
class name: True
--
compound: COC1(OC)OC2=C(OC1(OC)OC)c1ccccc1C2=O
class name: False
--
compound: O=C1Oc2ccccc2C1c1ccccc1 (stereo unspecified)
class name: True
--
compound: CCCCN(C)C(=S)N/N=C(\C)c1ccccn1
class name: True
--
compound: O=C(CC1(O)C(=O)Nc2c(Cl)cc(Cl)cc21)c1ccc(Br)cc1 (stereo unspecified)
class name: False
--
compound: CN=C(N)N/N=C(\C)c1ccc2c(c1)Cc1cc(/C(C)=N/NC(N)=NC)ccc1-2
class name: True
--
compound: COc1ccc(NC(=O)OC(C)C)c(OC)c1
class name: False
--
compound: COC/C=N/Nc1ccc([N+](=O)[O-])cc1
class name: True
--
compound: O=C(c1cccc(Cl)c1)c1ccc2ccccc2c1C(=O)O
class name: False
--
compound: CC1=C(C(=O)Nc2cccc(Cl)c2)C(c2ccccc2O)C(C(=O)Nc2cccc(Cl)c2)=C(C)N1
class name: False
--
compound: O=C1Nc2ccccc2NC(=O)C(=C(c2ccccc2)c2ccccc2)C1=C(c1ccccc1)c1ccccc1
class name: True
--
compound: CCOc1cc(/C=N/NC(=S)NC23CC4CC(CC(C4)C2)C3)ccc1O
class name: False
--
compound: CCN(CC)CCOC(=O)C1C(c2ccccc2)C1(c1ccccc1)c1ccccc1 (stereo unspecified)
class name: True
--
compound: COc1cc(/C=C2/SC(=S)NC2=O)cc(OC)c1O
class name: False
--
compound: CC(C)OC(=O)c1ccc(NCC2=CC(=O)C=CC2=O)cc1Cl
class name: True
--
compound: CC(=O)C(=Cc1ccc(C=C(C(C)=O)C(C)=O)cc1)C(C)=O
class name: False
--
compound: CC(/C(=N/NC(=O)C(N)=O)c1c(Cl)ccc(Cl)c1O)C1(O)C(=O)Nc2ccccc21 (stereo unspecified)
class name: True
